B1: ZNF207 (parent)
chain: CHICHKKLYTGPGLAIHCMQVHKE

Variants of: B1
Experimental Protocol: protein stability index of a GFP-peptide fusion (GPS, HEK-293T) (PSI 1-6); higher = more stable;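 also: lentivirally expressed fusions sorted by FACS into six bins by GFP to DsRed ratio, PSI derived from sequencing read proportions per bin multiplied by bin number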
Condition Details: c terminus: a fixed tail appended
// protein stability index lookup, one value per entry
Number, no unit, nothing else.

Consider the reported protein stability index for these variants:
H17S    3.15
C18A    2.62
L14A    3.96
H22C    2.64
E24C    3.29
T10E    3.83
P12S    3.86
I3Q    2.44

Query: Give the value of protein stability index reported for the following: K23M
Response: 3.49

Query: Give the value of protein stability index reported for the following: H17F
Response: 3.52

Query: Give the value of protein stability index reported for the following: G11S
Response: 3.48

Query: Give the value of protein stability index reported for the following: H2M
Response: 2.49

Query: Give the value of protein stability index reported for the following: C1E
Response: 2.76

Query: Give the value of protein stability index reported for the following: H2Y
Response: 2.74

Query: Give the value of protein stability index reported for the following: H22D
Response: 3.04

Query: Give the value of protein stability index reported for the following: K6T
Response: 2.15

Query: Give the value of protein stability index reported for the following: L8I
Response: 3.67

Query: Give the value of protein stability index reported for the following: G11D
Response: 3.98

Query: Give the value of protein stability index reported for the following: V21Q
Response: 2.89
